Assay target: rat PGT (Rattus norvegicus)
Test: PGT inhibition: [3H]PGE2 uptake in MDCK cells stably transfected with rat PGT
Experimental setup: room temperature
pIC50: −log10 of the molar value.
Reported endpoint: pIC50

CCC(CC)(CCC(=O)O)c1cncc(Nc2cc(F)c(F)cc2F)n1 = > 6.00

Output measured pIC50 for this item: CCC(CC)(CCC(=O)O)c1nc(Nc2ccc(F)cc2F)sc1Br [Cmp. 22b]
> 6.00

State, in one line, measured pIC50 of CCOC(=O)C(CC)(CCC(=O)O)c1cncc(Nc2ccccc2OC)n1 (racemic)
> 6.00

Please indicate pIC50 recorded for CCOC(=O)C(CC)(CCC(=O)O)c1nc(Nc2ccc(Cl)cc2Cl)sc1Br (racemic) [Cmp. 14b]
> 6.00

For the compound `CCC(CC)(CCC(=O)O)c1csc(Nc2ccc(C)cc2)n1` , give its reported pIC50.
> 4.00
